assay: Stability in acidic environment at 25° C. (half-life of initial microbiological activity); type: physicochemical; details: aqueous solution; pH 3.0, 25° C.; read-out: t 1/2 (converted)

- query smiles: "CC[C@H]1OC(=O)[C@H](C)[C@@H](O[C@H]2C[C@@](C)(OC)[C@@H](O)[C@H](C)O2)[C@H](C)[C@@H](O[C@@H]2O[C@H](C)C[C@H](N(C)C)[C@H]2O)[C@](C)(O)C[C@](C)(F)C(=O)[C@H](C)[C@@H](O)[C@]1(C)O"
  half-life (h): 82.5

###

system: Streptococcus pneumoniae ATCC 6303 LRP 52; experiment: Bacteriostatic power in solid medium (MIC); format: cell-based; conditions: Streptococcus pneumoniae, ATCC6303, read-out: Minimum inhibiting concentration

- compound: "CC[C@H]1OC(=O)[C@H](C)[C@@H](O[C@H]2C[C@H](OC)[C@@H](O)[C@H](C)O2)[C@H](C)[C@@H](O[C@@H]2O[C@H](C)C[C@H](N(C)C)[C@H]2O)[C@](C)(O)C[C@](C)(F)C(=O)[C@H](C)[C@@H](O)[C@]1(C)O"
  assayed system: "Streptococcus pneumoniae ATCC 6303 LRP 52"
  unit abbrev: "mg/L"
  MIC: 0.049
- compound: "CC[C@H]1OC(=O)[C@H](C)[C@@H](O[C@H]2C[C@H](OC)[C@@H](O)[C@H](C)O2)[C@H](C)[C@@H](O[C@@H]2O[C@H](C)C[C@H](N(C)C)[C@H]2O)[C@](C)(O)C[C@](C)(F)C(=O)[C@H](C)[C@@H](O)[C@H]1C"
  assayed system: "Streptococcus pneumoniae ATCC 6303 LRP 52"
  unit abbrev: "mg/L"
  MIC: 0.049
- compound: "CC[C@H]1OC(=O)[C@H](C)[C@@H](O[C@H]2C[C@@](C)(OC)[C@@H](O)[C@H](C)O2)[C@H](C)[C@@H](O[C@@H]2O[C@H](C)C[C@H](N(C)C)[C@H]2O)[C@](C)(O)C[C@@H](C)C(=O)[C@H](C)[C@@H](O)[C@]1(C)O [Erythromycin A, reference compound]"
  assayed system: "Streptococcus pneumoniae ATCC 6303 LRP 52"
  unit abbrev: "mg/L"
  MIC: 0.012
- compound: "CC[C@H]1OC(=O)[C@H](C)[C@@H](O[C@H]2C[C@@](C)(OC)[C@@H](O)[C@H](C)O2)[C@H](C)[C@@H](O[C@@H]2O[C@H](C)C[C@H](N(C)C)[C@H]2O)[C@](C)(O)C[C@](C)(F)C(=O)[C@H](C)[C@@H](O)[C@]1(C)O"
  assayed system: "Streptococcus pneumoniae ATCC 6303 LRP 52"
  unit abbrev: "mg/L"
  MIC: 0.024

###

Parameter MIC: see the listing below.
system: Fusobacteriumnecrophroum ATCC 27852 LRP 210; assay: Bacteriostatic power in solid medium (MIC); type: cell-based; settings: read-out: Minimum inhibiting concentration

- compound: "CC[C@H]1OC(=O)[C@H](C)[C@@H](O[C@H]2C[C@H](OC)[C@@H](O)[C@H](C)O2)[C@H](C)[C@@H](O[C@@H]2O[C@H](C)C[C@H](N(C)C)[C@H]2O)[C@](C)(O)C[C@](C)(F)C(=O)[C@H](C)[C@@H](O)[C@]1(C)O [P-80207]"
  MIC / µg/mL: 12.5
- compound: "CC[C@H]1OC(=O)[C@H](C)[C@@H](O[C@H]2C[C@H](OC)[C@@H](O)[C@H](C)O2)[C@H](C)[C@@H](O[C@@H]2O[C@H](C)C[C@H](N(C)C)[C@H]2O)[C@](C)(O)C[C@](C)(F)C(=O)[C@H](C)[C@@H](O)[C@H]1C [P-80204]"
  MIC / µg/mL: 12.5
